STUDY SYSTEM: wild-type human cardiac sodium channel, hNav1.5 (Homo sapiens)
Sequence (Q14524 whole entry): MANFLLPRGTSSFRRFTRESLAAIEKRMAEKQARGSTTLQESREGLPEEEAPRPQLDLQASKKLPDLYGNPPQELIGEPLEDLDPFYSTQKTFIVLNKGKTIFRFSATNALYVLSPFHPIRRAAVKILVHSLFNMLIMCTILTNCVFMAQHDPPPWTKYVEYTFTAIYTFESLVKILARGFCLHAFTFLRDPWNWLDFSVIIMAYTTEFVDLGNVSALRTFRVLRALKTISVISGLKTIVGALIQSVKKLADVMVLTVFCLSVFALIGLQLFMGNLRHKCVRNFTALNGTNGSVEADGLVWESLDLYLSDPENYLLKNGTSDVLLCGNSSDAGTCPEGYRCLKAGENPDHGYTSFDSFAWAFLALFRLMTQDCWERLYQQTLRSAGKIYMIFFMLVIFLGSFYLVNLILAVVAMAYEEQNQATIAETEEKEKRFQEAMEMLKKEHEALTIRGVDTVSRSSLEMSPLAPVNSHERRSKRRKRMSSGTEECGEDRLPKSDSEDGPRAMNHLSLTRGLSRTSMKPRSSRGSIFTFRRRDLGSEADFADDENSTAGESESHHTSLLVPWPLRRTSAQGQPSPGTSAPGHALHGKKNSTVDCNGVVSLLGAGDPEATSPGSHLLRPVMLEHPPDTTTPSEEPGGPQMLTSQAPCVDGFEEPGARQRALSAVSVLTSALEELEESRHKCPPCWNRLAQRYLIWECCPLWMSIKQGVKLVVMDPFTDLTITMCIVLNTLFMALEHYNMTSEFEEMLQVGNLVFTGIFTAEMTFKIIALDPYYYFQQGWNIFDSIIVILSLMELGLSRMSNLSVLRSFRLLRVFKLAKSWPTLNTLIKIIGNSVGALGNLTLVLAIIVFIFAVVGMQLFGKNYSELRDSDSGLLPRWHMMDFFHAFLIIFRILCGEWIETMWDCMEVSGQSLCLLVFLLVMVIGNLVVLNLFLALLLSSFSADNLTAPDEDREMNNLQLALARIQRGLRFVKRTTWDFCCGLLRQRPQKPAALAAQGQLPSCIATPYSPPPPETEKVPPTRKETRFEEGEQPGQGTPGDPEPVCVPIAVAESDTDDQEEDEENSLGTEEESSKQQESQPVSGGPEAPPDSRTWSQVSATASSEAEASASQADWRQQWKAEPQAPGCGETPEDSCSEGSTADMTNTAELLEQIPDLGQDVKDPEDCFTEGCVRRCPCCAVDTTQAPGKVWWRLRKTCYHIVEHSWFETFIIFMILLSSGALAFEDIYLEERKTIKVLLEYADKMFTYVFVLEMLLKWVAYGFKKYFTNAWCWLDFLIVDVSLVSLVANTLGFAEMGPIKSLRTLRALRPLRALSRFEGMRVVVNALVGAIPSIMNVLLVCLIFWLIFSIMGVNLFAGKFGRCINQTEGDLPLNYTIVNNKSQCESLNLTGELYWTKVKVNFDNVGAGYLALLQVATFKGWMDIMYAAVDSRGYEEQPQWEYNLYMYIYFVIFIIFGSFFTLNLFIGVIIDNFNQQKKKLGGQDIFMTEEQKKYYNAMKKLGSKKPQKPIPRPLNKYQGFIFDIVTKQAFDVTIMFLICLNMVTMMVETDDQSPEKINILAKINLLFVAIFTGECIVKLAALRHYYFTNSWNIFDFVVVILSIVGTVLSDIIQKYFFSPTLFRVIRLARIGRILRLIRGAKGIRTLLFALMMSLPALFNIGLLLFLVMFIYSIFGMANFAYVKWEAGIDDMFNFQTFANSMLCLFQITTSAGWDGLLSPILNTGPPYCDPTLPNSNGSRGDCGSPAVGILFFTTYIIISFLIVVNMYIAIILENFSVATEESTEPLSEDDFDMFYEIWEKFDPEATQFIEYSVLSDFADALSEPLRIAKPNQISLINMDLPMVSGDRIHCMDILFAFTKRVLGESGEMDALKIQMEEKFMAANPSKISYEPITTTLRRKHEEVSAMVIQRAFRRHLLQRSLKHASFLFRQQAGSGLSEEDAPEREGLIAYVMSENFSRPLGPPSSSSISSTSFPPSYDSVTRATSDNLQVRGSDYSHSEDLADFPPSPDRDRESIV
PROTOCOL SUMMARY: Late INa screening assay (QPatch whole cell patch clamp, tefluthrin-enhanced late sodium current)
Assay type: cell-based
EXPERIMENTAL PARAMETERS: HEK293 hNav1.5, late INa activated with 10 μM Tefluthrin
Classification field. Basis: inhibition at 1 µM. Definitions: group A: < 10%; group B: ≥ 10% and < 30%; group C: ≥ 30%

INSERT INTO measurements (molecule, discrete_label) VALUES
  ('FC(F)(F)c1ccc(-c2ccc3c(c2)-c2nccn2CCO3)cc1', 'group C'),
  ('FC(F)(F)c1ccc(-c2ccc3c(c2)C(N2CCCC2c2ccccn2)=NCCO3)cc1 (stereo not drawn)', 'group B'),
  ('FC(F)(F)c1ccc(-c2ccc3c(c2)C(NCCn2ccnc2)=NCCO3)cc1', 'group B'),
  ('OC[C@H]1CCN(C2=NCCOc3ccc(-c4ccc(C(F)(F)F)cc4)cc32)C1', 'group B'),
  ('FC(F)(F)c1ccc(-c2ccc3c(c2)C(Nc2ccccc2)=NCCO3)cc1', 'group B'),
  ('FC(F)(F)c1ccc(-c2ccc3c(c2)C(NCCOc2ccccc2)=NCCO3)cc1', 'group C'),
  ('Cn1c(CNC2=NCCOc3ccc(-c4ccc(C(F)(F)F)cc4)cc32)nc2ccccc21', 'group C'),
  ('O=C(N[C@@H]1CCN(C2=NCCOc3ccc(-c4ccc(C(F)(F)F)cc4)cc32)C1)c1ncccn1', 'group A'),
  ('O=C(O)c1cn2c(n1)-c1cc(-c3ccc(C(F)(F)F)cc3)ccc1OCC2', 'group A'),
  ('N#Cc1cnc2n1CCOc1ccc(-c3ccc(C(F)(F)F)cc3)cc1-2', 'group A'),
  ('OC1CCN(C2=NCCOc3ccc(-c4ccc(C(F)(F)F)cc4)cc32)C1 (stereo not drawn)', 'group A'),
  ('CN(Cc1ccccc1)C1=NCCOc2ccc(-c3ccc(C(F)(F)F)cc3)cc21', 'group B'),
  ('FC(F)(F)c1ccc(-c2ccc3c(c2)C(NC2CCN(Cc4ncccn4)C2)=NCCO3)cc1 (stereo not drawn)', 'group A'),
  ('CN[C@@H]1CCN(C2=NCCOc3ccc(-c4ccc(C(F)(F)F)cc4)cc32)C1', 'group B'),
  ('CC(C)(C)OC(=O)N[C@@H]1CCN(C2=NCCOc3ccc(-c4ccc(C(F)(F)F)cc4)cc32)C1', 'group B'),
  ('FC(F)(F)c1ccc(-c2ccc3c(c2)C(N2CCCC2)=NCCO3)cc1', 'group B');
